Just for reference, paper PMC8623647 is where these values come from.

Test: Cytotoxicity by MTT assay
Assay type: cell-based, African Green Monkey
Details: African green monkey, Vero cells (kidney); Vero cells treated at effective concentrations; read-out: Cells remaining viable
MEASURE: viability at 48 h

[ask] Which measured viability at 48 h value corresponds to CSc1ccc(C(=O)/C=C/c2ccccc2)cc1 ?
[reply] > 90%

[ask] Which measured viability at 48 h value corresponds to CSc1ccc(C(=O)/C=C/c2ccc(Cl)cc2)cc1 ?
[reply] > 90%

----------
Target: recombinant human MAO-A (Homo sapiens)
Sequence (P21397 whole entry): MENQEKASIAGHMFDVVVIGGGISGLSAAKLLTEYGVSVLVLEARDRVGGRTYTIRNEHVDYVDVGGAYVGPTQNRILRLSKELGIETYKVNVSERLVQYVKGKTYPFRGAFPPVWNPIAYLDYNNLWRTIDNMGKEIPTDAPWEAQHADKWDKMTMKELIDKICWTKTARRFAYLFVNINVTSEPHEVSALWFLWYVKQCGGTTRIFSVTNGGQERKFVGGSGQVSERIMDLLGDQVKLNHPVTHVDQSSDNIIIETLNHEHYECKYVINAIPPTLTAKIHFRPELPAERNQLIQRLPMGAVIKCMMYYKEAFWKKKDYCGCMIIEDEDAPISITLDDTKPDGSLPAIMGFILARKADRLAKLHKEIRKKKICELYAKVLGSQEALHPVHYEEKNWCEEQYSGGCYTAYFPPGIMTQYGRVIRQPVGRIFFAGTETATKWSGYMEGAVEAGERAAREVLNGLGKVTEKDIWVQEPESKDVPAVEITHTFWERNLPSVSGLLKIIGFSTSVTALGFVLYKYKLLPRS
Test: MAO-A enzyme inhibition (kynuramine substrate, 316 nm)
Conditions: read-out: Residual Activity at 10 µM (%) MAO-A
MEASURE: remaining activity at 10 µM (%)
Field: numeric (%). Do not append units.

{"GIVEN SMILES": "CSc1ccc(C(=O)/C=C/c2ccc(F)cc2)cc1", "UNIT INFO": "%", "RESULT": 57.9}

[ask] Item: CSc1ccc(C(=O)/C=C/c2ccc([N+](=O)[O-])cc2)cc1 Test system: recombinant human MAO-A (Homo sapiens) Read-out: remaining activity at 10 µM Value: ?
[reply] 66.1

[ask] Item: COc1ccc(/C=C/C(=O)c2ccc(SC)cc2)cc1 Test system: recombinant human MAO-A (Homo sapiens) Read-out: remaining activity at 10 µM Value: ?
[reply] 44.6

[ask] Item: CCc1ccc(/C=C/C(=O)c2ccc(SC)cc2)cc1 Test system: recombinant human MAO-A (Homo sapiens) Read-out: remaining activity at 10 µM Value: ?
[reply] 49.4

[ask] Item: CSc1ccc(C(=O)/C=C/c2ccc(C(F)(F)F)cc2)cc1 Test system: recombinant human MAO-A (Homo sapiens) Read-out: remaining activity at 10 µM Value: ?
[reply] 79.5

[ask] Item: CSc1ccc(C(=O)/C=C/c2ccc(N(C)C)cc2)cc1 Test system: recombinant human MAO-A (Homo sapiens) Read-out: remaining activity at 10 µM Value: ?
[reply] 47.9

[ask] Item: CSc1ccc(C(=O)/C=C/c2ccc(Br)cc2)cc1 Test system: recombinant human MAO-A (Homo sapiens) Read-out: remaining activity at 10 µM Value: ?
[reply] 74.7
